# Assay System: TRPC5 (Homo sapiens)
# Construct: expressed in transfected cells; host or cells: HEK 293
# Sequence (Q9UL62 whole entry): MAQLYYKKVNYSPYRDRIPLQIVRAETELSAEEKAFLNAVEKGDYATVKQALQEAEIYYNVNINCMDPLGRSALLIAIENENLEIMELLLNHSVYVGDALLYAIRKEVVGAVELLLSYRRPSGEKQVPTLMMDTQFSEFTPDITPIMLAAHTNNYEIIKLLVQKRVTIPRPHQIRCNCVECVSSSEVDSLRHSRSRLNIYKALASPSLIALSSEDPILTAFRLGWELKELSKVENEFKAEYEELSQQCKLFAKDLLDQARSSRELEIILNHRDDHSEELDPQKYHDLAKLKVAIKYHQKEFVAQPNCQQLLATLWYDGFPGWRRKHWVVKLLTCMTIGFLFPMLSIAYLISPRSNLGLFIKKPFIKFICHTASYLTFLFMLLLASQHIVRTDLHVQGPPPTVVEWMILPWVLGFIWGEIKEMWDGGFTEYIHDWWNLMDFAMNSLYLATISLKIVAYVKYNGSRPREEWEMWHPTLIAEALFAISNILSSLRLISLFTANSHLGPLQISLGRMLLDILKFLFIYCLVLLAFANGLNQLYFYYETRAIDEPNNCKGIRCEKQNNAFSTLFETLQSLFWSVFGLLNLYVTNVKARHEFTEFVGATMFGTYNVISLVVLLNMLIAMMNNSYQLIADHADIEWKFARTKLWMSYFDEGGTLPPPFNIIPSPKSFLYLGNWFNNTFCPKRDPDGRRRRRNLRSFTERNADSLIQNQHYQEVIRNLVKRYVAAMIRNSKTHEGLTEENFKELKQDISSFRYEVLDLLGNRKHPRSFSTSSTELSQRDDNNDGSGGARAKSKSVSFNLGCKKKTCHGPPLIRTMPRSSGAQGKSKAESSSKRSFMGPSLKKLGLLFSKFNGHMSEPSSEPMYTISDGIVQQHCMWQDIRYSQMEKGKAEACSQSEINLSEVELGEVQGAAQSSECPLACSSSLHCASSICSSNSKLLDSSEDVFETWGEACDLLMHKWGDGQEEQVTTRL
# Test Name: TRPC5 automated patch clamp assay (Qpatch), current block after rosiglitazone stimulation
# Format: cell-based
# Condition Description: Table 5; HEK293 cells overexpressing TRPC5; rosiglitazone stimulation; 100 mV; read-out: TRPC5_QP_ XC50_100
List of IC50 values.

IN: Provide the reported IC50 (system: TRPC5 (Homo sapiens)) for `Cc1ccccc1CN1CCN(c2c(Cl)cn[nH]c2=O)CC1=O`
OUT: 10 to 500 µM

IN: Provide the reported IC50 (system: TRPC5 (Homo sapiens)) for `O=C1CN(c2cn[nH]c(=O)c2Cl)CCN1Cc1cccnc1Oc1ccccc1`
OUT: 5 to 10 µM

IN: Provide the reported IC50 (system: TRPC5 (Homo sapiens)) for `COc1cc(C(F)(F)F)ccc1CN1CCN(c2cn[nH]c(=O)c2Cl)CC1=O`
OUT: 5 to 10 µM

IN: Provide the reported IC50 (system: TRPC5 (Homo sapiens)) for `C=Cc1n[nH]c(=O)c(Cl)c1N1CCN(Cc2ccc(F)cc2C)CC1`
OUT: 10 to 500 µM

IN: Provide the reported IC50 (system: TRPC5 (Homo sapiens)) for `Cc1cc(F)ccc1CN1CCN(c2cc(=O)[nH]nc2C)CC1=O`
OUT: 10 to 500 µM

IN: Provide the reported IC50 (system: TRPC5 (Homo sapiens)) for `O=C1CN(c2cn[nH]c(=O)c2Cl)CCN1Cc1ccc(OC(F)(F)F)cc1F`
OUT: 5 to 10 µM

IN: Provide the reported IC50 (system: TRPC5 (Homo sapiens)) for `O=C1CN(c2cn[nH]c(=O)c2C(F)(F)F)CCN1Cc1ccccc1C(F)(F)F`
OUT: 1 to 5 µM

IN: Provide the reported IC50 (system: TRPC5 (Homo sapiens)) for `COc1cc(F)ccc1CN1CCN(c2c(Cl)cn[nH]c2=O)CC1=O`
OUT: 10 to 500 µM

IN: Provide the reported IC50 (system: TRPC5 (Homo sapiens)) for `Cc1ccc(CN2CCN(c3cn[nH]c(=O)c3Cl)CC2=O)cc1`
OUT: 5 to 10 µM

IN: Provide the reported IC50 (system: TRPC5 (Homo sapiens)) for `Cc1ccccc1Cn1cnc2c1CN(c1cn[nH]c(=O)c1Cl)CC2`
OUT: 10 to 500 µM
